# protocol-details: Variable-temperature 17O NMR transverse relaxation (water exchange)
# Type: physicochemical
# run-parameters: 25° C., pH 6.9
Kindly state TM (derived from VT 17O NMR spectroscopy) for each of the entries shown.
Response body: numeric value in ns, unit text excluded.

Please supply the value of reported TM (derived from VT 17O NMR spectroscopy) for the item O=C([O-])CN1CCN(CCN2CCOCCOCCOCCOCC2)CCN(CC(=O)[O-])CCN(CC(=O)[O-])CC1.[Gd+3] [GdL1]
55

Specify TM (derived from VT 17O NMR spectroscopy) for O=C([O-])CN1CCN(CCOCC2COCCOCCOCCOCCO2)CCN(CC(=O)[O-])CCN(CC(=O)[O-])CC1.[Gd+3] (stereo not drawn) [GdL2] and stop.
116

For the compound O=C([O-])CN1CCN(CC(=O)[O-])CCN(CC(=O)N2CCOCCOCCN(Cc3ccc4ccccc4n3)CCOCCOCC2)CCN(CC(=O)[O-])CC1.[Gd+3] [GdL3] , report TM (derived from VT 17O NMR spectroscopy).
246

Let me know recorded TM (derived from VT 17O NMR spectroscopy) for O=C([O-])CN(CCN(CC(=O)[O-])CC(=O)O)CCN(CC(=O)[O-])CC(=O)O.[Gd+3] [Gd-DTPA] , thanks.
250

Tell me its TM (derived from VT 17O NMR spectroscopy) given O=C([O-])CN1CCN(CC(=O)[O-])CCN(CC(=O)O)CCN(CC(=O)[O-])CC1.[Gd+3] [Gd-DOTA, reference compound] as the entry.
300

Write down TM (derived from VT 17O NMR spectroscopy) measured for item O=C([O-])CN1CCNCCN(CC(=O)[O-])CCN(CC(=O)[O-])CC1.[Gd+3] [Gd-DO3A, reference compound]
160

###

# protocol-details: Luminescence lifetime measurements of Tb complexes for hydration number q
# Format: physicochemical
# run-parameters: pH 6.9 (0.1 M Tris/HCl), 298 K; ±10%
Answer each item with its documented kH2O, absolute emission depopulation rate constant in H2O.
Quick reminder: number only, in ms^−1, skip the unit.

Assign kH2O, absolute emission depopulation rate constant in H2O to the following record: O=C([O-])CN1CCN(CC(=O)[O-])CCN(CC(=O)[O-])CCN(CC(=O)[O-])CC1.[Tb+3] [Tb-DOTA, reference compound]
0.48

Tell me its kH2O, absolute emission depopulation rate constant in H2O given O=C([O-])CN1CCN(CCN2CCOCCOCCOCCOCC2)CCN(CC(=O)[O-])CCN(CC(=O)[O-])CC1.[Tb+3] [TbL1] as the entry.
0.72

Retrieve kH2O, absolute emission depopulation rate constant in H2O measured for O=C([O-])CN1CCNCCN(CC(=O)[O-])CCN(CC(=O)[O-])CC1.[Tb+3] [Tb-DO3A, reference compound] and print it.
0.88

Tell us which kH2O, absolute emission depopulation rate constant in H2O value is on record for O=C([O-])CN1CCN(CC(=O)[O-])CCN(CC(=O)N2CCOCCOCCN(Cc3ccc4ccccc4n3)CCOCCOCC2)CCN(CC(=O)[O-])CC1.[Tb+3] [TbL3]
0.50

###

# protocol-details: Variable-temperature 17O NMR transverse relaxation (water exchange)
# Type: physicochemical
# run-parameters: 298 K (25° C.), 2.12 T
Give measured exchange lifetime τM of the inner-sphere coordinated water molecules for each item. Keep answers brief.
Just the number in ns, nothing appended.

Read off the recorded exchange lifetime τM of the inner-sphere coordinated water molecules for O=C([O-])CN1CCN(CC(=O)[O-])CCN(CC(=O)O)CCN(CC(=O)[O-])CC1.[Gd+3] [Gd-DOTA, reference compound]
245

Quote exchange lifetime τM of the inner-sphere coordinated water molecules reported for O=C([O-])CN1CCNCCN(CC(=O)[O-])CCN(CC(=O)[O-])CC1.[Gd+3] [Gd-DO3A, reference compound] please.
160

Input "O=C([O-])CN1CCN(CCN2CCOCCOCCOCCOCC2)CCN(CC(=O)[O-])CCN(CC(=O)[O-])CC1.[Gd+3]" , output reported exchange lifetime τM of the inner-sphere coordinated water molecules.
55

Identify exchange lifetime τM of the inner-sphere coordinated water molecules associated with the compound "O=C([O-])CN1CCN(CC(=O)[O-])CCN(CC(=O)N2CCOCCOCCN(Cc3ccc4ccccc4n3)CCOCCOCC2)CCN(CC(=O)[O-])CC1.[Gd+3]"
246

Please give the documented exchange lifetime τM of the inner-sphere coordinated water molecules of O=C([O-])CN1CCN(CCOCC2COCCOCCOCCOCCO2)CCN(CC(=O)[O-])CCN(CC(=O)[O-])CC1.[Gd+3] (centres unmarked)
116
